target: hGcgR (Homo sapiens, UniProt P47871); experiment: Functional cAMP activation in the presence of 0.1% casein (no HSA); type: cell-based; settings: read-out: Relative cAMP EC50, hGcgR;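 note: intracellular cAMP rise after 30 min at 37 °C, read by HTRF against a cAMP standard curve, scaled from buffer only (0%) to maximal control ligand response (100%)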
Sequence (P47871 26-477): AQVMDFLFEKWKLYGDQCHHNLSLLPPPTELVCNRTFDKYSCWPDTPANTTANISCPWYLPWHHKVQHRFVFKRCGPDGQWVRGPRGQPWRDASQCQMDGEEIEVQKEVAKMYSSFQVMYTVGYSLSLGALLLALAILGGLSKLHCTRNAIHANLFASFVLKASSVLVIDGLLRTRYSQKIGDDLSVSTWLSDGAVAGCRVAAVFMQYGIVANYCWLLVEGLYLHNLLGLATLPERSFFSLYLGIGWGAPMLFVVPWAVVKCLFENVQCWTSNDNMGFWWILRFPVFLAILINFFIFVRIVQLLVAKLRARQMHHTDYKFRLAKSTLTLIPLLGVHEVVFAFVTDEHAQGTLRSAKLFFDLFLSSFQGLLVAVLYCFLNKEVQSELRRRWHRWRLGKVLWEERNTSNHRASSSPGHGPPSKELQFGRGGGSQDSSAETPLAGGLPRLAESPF
Starred links: 1 amine or outer side, 2 acyl side, 3 side chain; linkers in the order of their positions; H or OH if unused. Non-standard residues stand in square brackets, D forms with d. Groups on a side chain read outwards from the residue. *: point of attachment. C18 diacid = O=C(O)CCCCCCCCCCCCCCCCC(=O)*; αMePhe(2-F) = C[C@](N)(Cc1ccccc1F)C(=O)O; γGlu = O=C(O)[C@H](CCC(=O)[*:2])N[*:1]; αMe4Pal = C[C@](N)(Cc1ccncc1)C(=O)O; αMeY = C[C@](N)(Cc1ccc(O)cc1)C(=O)O; 4Pal = N[C@@H](Cc1ccncc1)C(=O)O; αMeL = CC(C)C[C@](C)(N)C(=O)O; αMeS = C[C@](N)(CO)C(=O)O; Orn = NCCC[C@H](N)C(=O)O; AEEA = NCCOCCOCC(=O)O; Aib = CC(C)(N)C(=O)O
Record form. Attribute: pEC50. Fill in for each entry.
Note: pEC50 values are expressed as the negative base-10 logarithm of concentration in M.

Lab note: need pEC50 with hGcgR (Homo sapiens, UniProt P47871) for entry H-Y[Aib]QGT[αMePhe(2-F)]TSD[4Pal]SI[αMeL]LD[Orn]K([AEEA-γGlu-C18 diacid])AQ[αMe4Pal][Orn]FIE[αMeY]LIEGGPSSGEPPPEGT-NH2 [Example 505] , please look it up.
9.35

Lab note: need pEC50 with hGcgR (Homo sapiens, UniProt P47871) for entry H-Y[Aib]QGT[αMePhe(2-F)]TSDYSILLDKK([AEEA-γGlu-C18 diacid])AQ[Aib]AFIEYLEEGGPSSGAPPPEEG-NH2 [Example 399] , please look it up.
8.82

Lab note: need pEC50 with hGcgR (Homo sapiens, UniProt P47871) for entry H-Y[Aib]QGT[αMePhe(2-F)]TSD[4Pal]SILLDKK([γGlu-γGlu-C18 diacid])AQ[Aib]AFIE[αMeY]LEEGGPSSGAPPPSGTE-NH2 [Example 551] , please look it up.
8.76

Lab note: need pEC50 with hGcgR (Homo sapiens, UniProt P47871) for entry H-Y[Aib]QGT[αMePhe(2-F)]TSD[4Pal][αMeS]I[αMeL]LD[Orn]K([AEEA-γGlu-C18 diacid])AA[Aib]EFI[dE][αMeY]LIEGGPSSGAPPPSGTEQ-OH [Example 726] , please look it up.
8.77

Lab note: need pEC50 with hGcgR (Homo sapiens, UniProt P47871) for entry H-Y[Aib]QGT[αMePhe(2-F)]TSD[4Pal]SI[αMeL]LD[Orn]K([γGlu-γGlu-C18 diacid])AQ[αMe4Pal][Orn]FI[dE][αMeY]LIEGGPSSGEPPPEGTE-NH2 [Example 687] , please look it up.
8.62
